# credit: paper PMC8915191

test: HCQ population pharmacokinetics, whole blood concentrations by HPLC-MS/MS; type: in vivo, human; conditions: human, whole blood, po
assayReadout: Vd/F (L)
Please state the figure in L; there is no need to write the unit.

Using the record for CCN(CCO)CCCC(C)Nc1ccnc2cc(Cl)ccc12 (stereo not shown) [HCQ, Hydroxychloroquine] , state its measured Vd/F.
600
